Reference source for all entries: patent US20250034266A1

Parameter: pEC50. Scope: all listed entries.
# Measured Target: T1, human CCR8 (human, UniProt P51685 1-355)
# T1 construct: whole, on cells; also called hCCR8
# T1 sequence (P51685 whole entry): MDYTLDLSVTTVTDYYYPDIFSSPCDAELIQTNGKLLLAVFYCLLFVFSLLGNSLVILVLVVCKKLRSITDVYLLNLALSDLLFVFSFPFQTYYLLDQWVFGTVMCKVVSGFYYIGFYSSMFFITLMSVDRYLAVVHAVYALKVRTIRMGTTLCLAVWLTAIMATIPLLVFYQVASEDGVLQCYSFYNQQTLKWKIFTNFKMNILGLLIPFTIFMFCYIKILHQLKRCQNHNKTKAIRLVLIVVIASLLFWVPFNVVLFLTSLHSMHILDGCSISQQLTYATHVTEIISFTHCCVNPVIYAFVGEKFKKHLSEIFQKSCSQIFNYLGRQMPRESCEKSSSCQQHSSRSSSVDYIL
# Method Description: FACS on HEK293-human CCR8 cells
pEC50: −log10 of the molar value.
Recorded Metric: pEC50

INSERT INTO measurements (binder, recorded_metric, value_measured) VALUES
  ('149F2C10_N28S (antibody, V domains shown, NG site removed variant of 149F2C10) VH: EVQLVESGGGLVQPKGSLKLSCAASGFTFNTYAMNWVRQAPGKGLEWVARIRSKSNFYATYYADSVKDRFTISRDDSQDMLYLQMNILKTEDTAIYYCVRGRDYGSSYAMDYWGQGTSVTVSS VL: DIVMTQAAPSVPVTPGESVSISCRSSKSLLHSSGNTYLYWFLQRPGQSPQLLIYRMSNLASGVPDRFSGSGSGTAFTLRISRVEAEDVGVYYCMQHLEYPLTFGAGTKLELK', 'pEC50', 9.68),
  ('149F2C10_N28I (antibody, V domains shown, NG site removed variant of 149F2C10) VH: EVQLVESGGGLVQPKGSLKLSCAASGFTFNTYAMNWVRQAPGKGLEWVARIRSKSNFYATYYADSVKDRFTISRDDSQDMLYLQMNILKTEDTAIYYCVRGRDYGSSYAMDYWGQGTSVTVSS VL: DIVMTQAAPSVPVTPGESVSISCRSSKSLLHSIGNTYLYWFLQRPGQSPQLLIYRMSNLASGVPDRFSGSGSGTAFTLRISRVEAEDVGVYYCMQHLEYPLTFGAGTKLELK', 'pEC50', 9.61),
  ('149F2C10-CHO (antibody, V domains shown, The suffix -CHO is not explained) VH: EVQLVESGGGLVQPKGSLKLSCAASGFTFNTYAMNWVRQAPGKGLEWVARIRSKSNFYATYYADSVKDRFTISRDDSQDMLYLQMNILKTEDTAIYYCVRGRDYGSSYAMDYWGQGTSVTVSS VL: DIVMTQAAPSVPVTPGESVSISCRSSKSLLHSNGNTYLYWFLQRPGQSPQLLIYRMSNLASGVPDRFSGSGSGTAFTLRISRVEAEDVGVYYCMQHLEYPLTFGAGTKLELK', 'pEC50', 9.85);
